The reported measurements were obtained from patent US20240294511A1.

Assay: Pharmacokinetic test in beagle dogs
Type: in vivo
Details: dog, blood, single intravenous 5 mg/kg, solution of crystalline form II in 10% DMSO, 60% PEG 400, 30% water, read-out: drug exposure (AUC0-t)
Readout Type: AUC(0-t) (ng·h/mL)
Provide the reading as a plain figure in ng·h/mL.

Task item: Quick one: AUC(0-t) for O=C(NC1(C23CC(C(=O)O)(C2)C3)CC1)c1cccc2ccn(Cc3cc4ccccc4o3)c12 ?
Reply: 12600

* * *

Assay: Pharmacokinetic test in SD rats
Type: in vivo
Conditions: rat, blood, single oral 40 mg/kg, suspension of crystalline form II in 0.5% CMC·Na, read-out: exposure (AUC0-t)
Readout Type: AUC(0-t) (µg·h/mL)
Answer in µg·h/mL, number only, no unit symbol.

Task item: Please report the recorded AUC(0-t) for O=C(NC1(C23CC(C(=O)O)(C2)C3)CC1)c1cccc2ccn(Cc3cc4ccccc4o3)c12 [compound of Formula (1)] .
Reply: 153

* * *

Test: Pharmacokinetic test in beagle dogs
Format: in vivo
Settings: dog, blood, single intravenous 5 mg/kg, read-out: clearance (CL)
Readout Type: clearance (mL/min/kg)
A number alone suffices; assume mL/min/kg.

Task item: Which clearance is listed for O=C(NC1(C23CC(C(=O)O)(C2)C3)CC1)c1cccc2ccn(Cc3cc4ccccc4o3)c12 ?
Reply: 6.64

* * *

Assay: Pharmacokinetic test in SD rats
Format: in vivo
Settings: rat, blood, single intravenous 15 mg/kg, solution of crystalline form II in 10% DMSO, 60% PEG 400, 30% water, read-out: drug exposure (AUC0-t)
Readout Type: AUC(0-t) (ng·h/mL)
Expressed in ng·h/mL, but write only the number.

Task item: Can you look up the measured AUC(0-t) of O=C(NC1(C23CC(C(=O)O)(C2)C3)CC1)c1cccc2ccn(Cc3cc4ccccc4o3)c12 for me?
Reply: 78800

* * *

Experiment: Pharmacokinetic test in SD rats
Assay type: in vivo
Details: rat, blood, single oral 40 mg/kg, suspension of crystalline form II in 0.5% CMC·Na, read-out: maximum blood drug concentration (Cmax)
Readout Type: Cmax (ng/mL)
Supply the numeric figure in ng/mL, leaving out any unit text.

Task item: Record request: Cmax value, item O=C(NC1(C23CC(C(=O)O)(C2)C3)CC1)c1cccc2ccn(Cc3cc4ccccc4o3)c12
Reply: 27700

* * *

Test: Pharmacokinetic test in beagle dogs
Format: in vivo
Settings: dog, blood, single oral 45 mg/kg, suspension of crystalline form II in 0.5% CMC·Na, read-out: maximum blood drug concentration (Cmax)
Readout Type: Cmax (µg/mL)
Quick note: give the figure in µg/mL, leave out the unit.

Task item: Which value of Cmax has been reported for O=C(NC1(C23CC(C(=O)O)(C2)C3)CC1)c1cccc2ccn(Cc3cc4ccccc4o3)c12 in the records?
Reply: 32.9

* * *

Assay: Pharmacokinetic test in beagle dogs
Assay type: in vivo
Settings: dog, blood, single intravenous 5 mg/kg, read-out: steady-state apparent volume of distribution (Vss)
Readout Type: Vd
Quote the value and follow it with the unit of measurement.

Task item: State the recorded Vd for this entry: O=C(NC1(C23CC(C(=O)O)(C2)C3)CC1)c1cccc2ccn(Cc3cc4ccccc4o3)c12
Reply: 1.5 L/kg
